Test system: RKO cells
protocol_text: Cell growth inhibition, RKO
Assay type: cell-based, Human
reported_conditions: Homo sapiens
pIC50: −log10 of the molar value.
assay_endpoint: pIC50

{"columns": ["molecule", "assay_endpoint", "observed_result"],
 "data": [
  ["Nc1ncn([C@H]2C[C@H](O)[C@@H](CO)O2)c(=O)n1 [DAC, 2′-deoxy-5-azacytidine, reference compound]", "pIC50", 9.70]
]}

---

protocol_text: Stability in phosphate-buffered saline
Format: physicochemical
reported_conditions: PBS solution at 37°C
Recorded measurements of t1/2 in PBS, one per entry
assay_endpoint: t1/2 in PBS (h)

{"columns": ["compound", "readout_units", "reported_relation", "observed_result"],
 "data": [
  ["CCC[Si](C)(C)OC[C@H]1O[C@@H](n2cnc(N)nc2=O)C[C@@H]1O", "h", "=", 1.0],
  ["CC[Si](CC)(OC[C@H]1O[C@@H](n2cnc(N)nc2=O)C[C@@H]1O)C(C)C", "h", ">", 24],
  ["CC[Si](CC)(OCC1OC(n2cnc(N)nc2=O)CC1O)C1CCCC1 (stereo not shown)", "h", ">", 24],
  ["CC[Si](C)(C)OC[C@H]1O[C@@H](n2cnc(N)nc2=O)C[C@@H]1O", "h", "=", 0.9],
  ["CC(C)(C)[Si](C)(C)OC[C@H]1O[C@@H](n2cnc(N)nc2=O)C[C@@H]1O", "h", ">", 24],
  ["CCCCCCCC[Si](C)(C)OCC1OC(n2cnc(N)nc2=O)CC1O (stereo not shown)", "h", "=", 1.5],
  ["Nc1ncn([C@H]2C[C@H](O)[C@@H](CO[Si](Cc3ccccc3)(Cc3ccccc3)Cc3ccccc3)O2)c(=O)n1", "h", ">", 24]
]}

---

protocol_text: Partition coefficient (log P), shake-flask method, n-octanol/PBS
Type: physicochemical
Recorded measurements of Log PO/PBS, one per entry

{"columns": ["compound", "Log PO/PBS"],
 "data": [
  ["CCCC[Si](C)(C)OC[C@H]1O[C@@H](n2cnc(N)nc2=O)C[C@@H]1O", 4.56],
  ["C[Si](C)(OCC1OC(n2cnc(N)nc2=O)CC1O)C1CCCC1 (stereo not shown)", 2.16],
  ["Nc1ncn([C@H]2C[C@H](O)[C@@H](CO[Si](Cc3ccccc3)(Cc3ccccc3)Cc3ccccc3)O2)c(=O)n1", 4.69],
  ["CC(C)[Si](C)(C)OC[C@H]1O[C@@H](n2cnc(N)nc2=O)C[C@@H]1O", 1.48]
]}

---

protocol_text: Pharmacokinetics in mice, intraperitoneal
Assay type: in vivo
reported_conditions: plasma, DAC (metabolite for OR compounds), equimolar dose
Recorded measurements of AUC 0 → lim, DAC, one per entry

{"columns": ["compound_string", "AUC 0 → lim, DAC"],
 "data": [
  ["CC[Si](CC)(CC)OC[C@H]1O[C@@H](n2cnc(N)nc2=O)C[C@@H]1O", "0.266 µM·h"],
  ["C[Si](C)(OC[C@H]1O[C@@H](n2cnc(N)nc2=O)C[C@@H]1O)C1CCCCC1", "0.238 µM·h"],
  ["CCC[Si](C)(C)OC[C@H]1O[C@@H](n2cnc(N)nc2=O)C[C@@H]1O", "0.338 µM·h"],
  ["CCC[Si](CC)(CC)OC[C@H]1O[C@@H](n2cnc(N)nc2=O)C[C@@H]1O", "0.285 µM·h"]
]}

---

protocol_text: Pharmacokinetics in mice, intraperitoneal
Assay type: in vivo
reported_conditions: plasma, dose equimolar to 0.20 mg/kg DAC

{"columns": ["compound_string", "AUC 0 → lim, OR compound, µM·h"],
 "data": [
  ["C[Si](C)(OC[C@H]1O[C@@H](n2cnc(N)nc2=O)C[C@@H]1O)C1CCCCC1", 0.314],
  ["CC[Si](CC)(CC)OC[C@H]1O[C@@H](n2cnc(N)nc2=O)C[C@@H]1O", 0.168],
  ["CCC[Si](C)(C)OC[C@H]1O[C@@H](n2cnc(N)nc2=O)C[C@@H]1O", 0.305],
  ["CCC[Si](CC)(CC)OC[C@H]1O[C@@H](n2cnc(N)nc2=O)C[C@@H]1O", 0.081]
]}

---

protocol_text: Pharmacokinetics in mice, intraperitoneal
Type: in vivo
reported_conditions: plasma, OR compound + metabolite DAC
Recorded measurements of AUC 0 → lim, Total, one per entry

{"columns": ["compound_string", "AUC 0 → lim, Total [µM·h]"],
 "data": [
  ["CCC[Si](C)(C)OC[C@H]1O[C@@H](n2cnc(N)nc2=O)C[C@@H]1O", 0.643],
  ["CCC[Si](CC)(CC)OC[C@H]1O[C@@H](n2cnc(N)nc2=O)C[C@@H]1O", 0.366],
  ["C[Si](C)(OC[C@H]1O[C@@H](n2cnc(N)nc2=O)C[C@@H]1O)C1CCCCC1", 0.552],
  ["CC[Si](CC)(CC)OC[C@H]1O[C@@H](n2cnc(N)nc2=O)C[C@@H]1O", 0.434]
]}

---

protocol_text: Pharmacokinetics in mice, intraperitoneal
Assay type: in vivo
reported_conditions: female, ICR, mouse, ip, 0.2 mg/kg, plasma, DAC (metabolite for OR compounds), equimolar dose, read-out: AUC 0 → lim, DAC
assay_endpoint: AUC (µM·h)

{"columns": ["molecule", "observed_result"],
 "data": [
  ["Nc1ncn([C@H]2C[C@H](O)[C@@H](CO)O2)c(=O)n1 [DAC, 2′-deoxy-5-azacytidine, reference compound]", 0.378]
]}
